- target or test system: Octn2 (Organic cation/carnitine transporter 2) (Mus musculus)
- Sequence (Q9Z0E8 whole entry): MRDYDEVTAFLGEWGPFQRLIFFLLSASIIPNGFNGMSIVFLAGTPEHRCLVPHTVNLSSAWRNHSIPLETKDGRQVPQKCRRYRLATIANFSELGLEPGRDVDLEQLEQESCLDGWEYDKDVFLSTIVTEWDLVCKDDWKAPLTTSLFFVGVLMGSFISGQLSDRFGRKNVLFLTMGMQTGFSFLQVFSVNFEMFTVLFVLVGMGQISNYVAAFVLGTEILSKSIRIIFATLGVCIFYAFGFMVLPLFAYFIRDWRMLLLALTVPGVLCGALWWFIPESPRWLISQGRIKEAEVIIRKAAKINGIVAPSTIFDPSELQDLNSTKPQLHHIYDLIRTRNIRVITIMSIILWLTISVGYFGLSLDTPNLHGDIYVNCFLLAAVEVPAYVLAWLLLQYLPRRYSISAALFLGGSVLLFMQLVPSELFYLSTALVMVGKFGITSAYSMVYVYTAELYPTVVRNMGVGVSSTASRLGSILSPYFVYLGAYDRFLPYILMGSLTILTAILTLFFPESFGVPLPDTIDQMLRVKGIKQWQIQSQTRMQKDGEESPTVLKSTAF
- test name: TP_TRANSPORTER: inhibition of carnitine transport by Palmitoyl-carnitine at 5uM in Octn2-HEK cells
- Format: functional, cell-based, HEK293
- Set-up: scale not given: the % may be the effect or the level left
- experimental conditions: human, probe carnitine, read-out: Activity
measure: activity at 5 µM

Find the measured activity at 5 µM of CCCCCCCCCCCCCCCC(=O)OC(CC(=O)[O-])C[N+](C)(C)C (stereo unspecified) and report it.
28%

====

- target or test system: Octn2 (Organic cation/carnitine transporter 2) (Mus musculus)
- test name: TP_TRANSPORTER: inhibition of carnitine uptake by Octanoyl-carnitine at 5uM in Octn2-HEK cells
- Format: functional, cell-based, HEK293
- Parameters: scale not given: the % may be the effect or the level left
- experimental conditions: human, probe carnitine, read-out: Activity
measure: activity at 5 µM (%)
Your answer should be a plain number; it is taken to be in %.

Return reported activity at 5 µM for target or system Octn2 (Organic cation/carnitine transporter 2) (Mus musculus), item CCCCCCCC(=O)OC(CC(=O)O)C[N+](C)(C)C (stereo unspecified) [Octanoyl-carnitine] .
38
